Parameter apparent KD of MS2 coat protein: see the listing below.
Test system: MS2 coat protein
PROCEDURE SUMMARY: apparent KD of MS2 coat protein, switch OFF state (with FMN for OFF switches, without FMN for ON switches); designed switch direction (-1 OFF switch, 1 ON switch): -1; higher = weaker reporter binding
ASSAY CONTEXT: FMN input: 0 or 200 uM; Eterna round: R93 (includes R88 designs)

CONSTRUCT SEQUENCE	apparent KD of MS2 coat protein, nM
AAAAAAGGAGGAUAUACGUACAUGUCGAAAGACGUGAAGGGACAUGAGGAUCACCCAUGUAGAAGGCUUAAAAA [Mat - Exclusion 2 - JL mod - D70]	22.9
GGGUCACAUGAGGAUCACCCAUGUAAGGAUAUGCUAGGGAUGGAAGCCAGGCCGCAACGCAGAAGGUACUAAAG [Janelle Amethyst 18 Mod 14 - Jieux - Exclusion 1]	54.7
GGAAAACAUGAGGAUCACCCAUGUCAGGAUAUACAAAGAAAGAAAGAAAAGAAAGAAAGUAGAAGGGACAAAAG [Amethyst 15]	31.9
GUGUACAGAGGAUAUACAUGAGCUAGGAAACUAGCAGGAUCACAUGAGGAUCACCCAUGUAGAAGGCUGUACAC [Ex2: 731]	15.5

---

Tested on: MS2 coat protein
PROCEDURE SUMMARY: apparent KD of MS2 coat protein; designed switch direction (-1 OFF switch, 1 ON switch): -1; higher = weaker reporter binding
ASSAY CONTEXT: input ligand: none

CONSTRUCT SEQUENCE	apparent KD of MS2 coat protein [nM]
GAACCUUGAGGAUAUACAUAACAACAAAGCCUCACGUGCCAACAUGAGGAUCACCCAUGUAGAAGGCAAGCCAA [Mod R3 Insanara 9 - Jieux - Exclusion 2] (Eterna round: R97, puzzle: Exclusion 2)	16.2
UAUGUGUCAGGAUAUUAGUAGUAAAUGAAUAAAAUUAUUACUGAGAAGGGACAUGAGGAUCACCCAUGUGCCUC [Mat - Exclusion 4 - Eli Mod - D27] (Eterna round: R97, puzzle: Exclusion 4)	35.2
CAGUACUGAGGAUAUACAUGAGGAUCACCCAUGUGUUCCAGCUAGGAAACUAGCAAUAGUAGAAGGCAGUACUG [salish99_ex3_r3_090x] (Eterna round: R96, puzzle: Exclusion 3)	23.2

---

Tested on: MS2 coat protein
PROCEDURE SUMMARY: apparent KD of MS2 coat protein, switch ON state; designed switch direction (-1 OFF switch, 1 ON switch): -1; higher = weaker reporter binding
ASSAY CONTEXT: FMN input: 0 or 200 uM; Eterna round: R93 (includes R88 designs)
Each entry gets F if its apparent KD of MS2 coat protein stays under 40 nM, and T if its apparent KD of MS2 coat protein is 40 nM or above.

CONSTRUCT SEQUENCE	TGT	LABEL VALUE
AAUAUGUAAGGAUAUGCUGCUCGUCACAAAAGUGAUGAGUAGCAGAAGGUACAUGAGGAUCACCCAUGUAAAGA [JL eternac mod 13]	MS2 coat protein	F
AAAAAGUGAGGAUAUUCGGAAGGGAAAGCGCAAACCCAACCGAAGAAGGCACAUGAGGAUCACCCAUGUAAAAA [Ecls4-III 65% - Early G segment 1]	MS2 coat protein	F
GGAAAACAUGAGGAUCACCCAUGUAAGGAUAUGCUAAAAAAAAAAAAAAAAAAAAAAUGCAGAAGGUACUAAAG [Amethyst 18]	MS2 coat protein	F
GGAAAACAUGAGGAUCACCCAUGUAAGGAUAUGCAAAAAAAAGGAUAUAGAAGGAAAAGCAGAAGGUACAAAGG [salish99-ex1-26]	MS2 coat protein	F
AAAACGCUAGGAUAUACAAAAAAAAAGGGAAAAAAAAAGGGACAUGAGGAUCACCCAUGUAGAAGGAGCAAAAA [Diamond 87]	MS2 coat protein	T
AACAUACAUGAGGAUCACCCAUGUCAGGAUAUGCCGGGUUAGAGCCAACUGAAAAACCGUAGAAGGGACGAAAA [Bilbo Confounded 8 - Jieux - Exclusion 1]	MS2 coat protein	T
CAGUACUGAGGAUAUACAUGAGGAUCACCCAUGUGGGAAAGCUACGAAAGUAGCAAAUGUAGAAGGCAGUACUG [Ex3: 805]	MS2 coat protein	T
AGGAUGUCAGGAUAUGUGUAAAGAAUAAAACAAAUAACAACACAGAAGGGACAUGAGGAUCACCCAUGUUAAAA [May 36]	MS2 coat protein	T
AGAAAACAUGAGGAUCACCCAUGUGAGGAUAUGCGAAAGAAAGAAAGAAAGAAAGAAAGCAGAAGGCACAAGAA [Ex 1 Tesla 2]	MS2 coat protein	F
AGGAAACAUGAGGAUCACCCAUGUAAGGAUAUGAGAAAGAAAAGAAAAGAAAGAAGAAUCAGAAGGUACAAGAA [Semerkhet]	MS2 coat protein	F
AUCGUUGGAGGAUAUGCUUGGAAAAAAAAAAAAAAAAAAAAACAUGAGGAUCACCCAUGUAGAAGGUCAAUGGA [Banishment 6 - Jieux - Exclusion 2]	MS2 coat protein	T
CUCUAGUUAGGAUAUCGAAGAAAAGAAAAGAAAGAAAAGAACGAGAAGGAACAUGAGGAUCACCCAUGUAAGAA [EteRNA is fun!]	MS2 coat protein	F
GAGAGGGCAGGAUAUGCGGAGAGAGAGAGAGAGAGAGAGAGACAUGAGGAUCACCCAUGUAGAAGGGCCGAGAG [salish99-ex2-09]	MS2 coat protein	T
AAUAUGUUAGGAUAUGCUGCUCGUCACAAAAGUGAUGAGUAGCAGAAGGAACAUGAGGAUCACCCAUGUAAAGA [JL eternac mod 12]	MS2 coat protein	F
AACAGUACAGGAUAUACAUGAGGAUCACCCAUGUGAAGAAUAAGUGGAGUACCACAAAGUAGAAGGGUACUGGA [Ruby 88]	MS2 coat protein	F
CUCUAGUAAGGAUAUCGAAGAAAAGAAAAGAAAGAAAAGAACGAGAAGGUACAUGAGGAUCACCCAUGUAAGAA [EteRNA is fun!]	MS2 coat protein	F
AGAAAACAUGAGGAUCACCCAUGUAAGGAUAUGCUAAGGGUGGCUUCGGCCACCCAAUGCAGAAGGUACAAAUA [Excalibur]	MS2 coat protein	F
